Test system: HaCaT
protocol.description: Cytotoxicity against human HaCaT cells assessed as LDH release at 2 uM after 4 hrs
Format: cell-based
Param label: returns yes when Activity < 70 mU/ml, returns no otherwise, including exact equality.

The examples below pair each entry with its known result.
{"smiles.data": "COc1ccc(CC2c3c(Cl)cccc3C(=O)c3cccc(Cl)c32)cc1", "measured.target": "HaCaT", "class.label": "yes"}
{"smiles.data": "O=C1c2cccc(Cl)c2Cc2c(Cl)cccc21", "measured.target": "HaCaT", "class.label": "yes"}
{"smiles.data": "COc1cccc(CC2c3c(Cl)cccc3C(=O)c3cccc(Cl)c32)c1", "measured.target": "HaCaT", "class.label": "yes"}

For the next question, use this compound.
Does this compound meet the criterion Activity < 70 mU/ml? O=C1c2cccc(Cl)c2C(Cc2ccc(O)c(O)c2)c2c(Cl)cccc21
no

* * *

Test system: HaCaT
protocol.description: Cytotoxicity against human HaCaT cells assessed as LDH release at 2 uM after 4 hrs
Type: cell-based
Please respond with reported Activity for every item in the list.
Numbers only, in mU/ml.

Example compounds with recorded Activity:
{"smiles.data": "COc1ccc(OC)c(CC2c3c(Cl)cccc3C(=O)c3cccc(Cl)c32)c1", "measured.target": "HaCaT", "Activity / mU/ml": 60.6}
{"smiles.data": "O=C1c2c(O)cccc2Cc2cccc(O)c21", "measured.target": "HaCaT", "Activity / mU/ml": 122.8}
{"smiles.data": "O=C1c2cccc(Cl)c2C(Cc2ccccc2)c2c(Cl)cccc21", "measured.target": "HaCaT", "Activity / mU/ml": 69.6}

Shift focus to the following entry.
What measured Activity goes with O=C1c2cccc(Cl)c2C(Cc2cccc([N+](=O)[O-])c2)c2c(Cl)cccc21 ?
69.9
